- Species: Rattus norvegicus
- Measurement Description: DrugMatrix - Regimen: Daily Repeat
- Format: toxicity, organism-based, Sprague-Dawley
- Design: regimen Daily Repeat, gender Male, age 6-8 weeks
- Run Parameters: in vivo, po, 0 mg/kg, 120 h, tissue Blood, route oral GAVAGE, dose level Control, time 5 day, […]
Below, each entry is listed with its recorded MEAN CORPUSCULAR HEMOGLOBIN.
Express it in pg; write the number only.

These recorded examples may help you get a feel for the data.
Compound | MEAN CORPUSCULAR HEMOGLOBIN (pg)
CC(=O)Nc1cccc(O)c1 | 24.42
O=NN(CCCl)C(=O)NCCCl | 24.5

Field: next compound
// query Identify the reported MEAN CORPUSCULAR HEMOGLOBIN for the following entry. COc1ccc2[nH]c([S+]([O-])Cc3ncc(C)c(OC)c3C)nc2c1 (stereo unspecified)
// result 24.27

Data provenance: ChEMBL document CHEMBL3885881
